Values were extracted from patent US20250186627A1.

System: NRG-mice bearing LNCaP tumors
Test: Biodistribution (and PET/SPECT imaging) in NRG-mice bearing LNCaP tumors
Type: in vivo
Details: 24 h p.i., Avg
*1 amine or outer side, *2 acyl side, *3 side chain or, on linkers, in order; H or OH if unused. Where a SMILES comes first, the peptide text is derived from it. [ ]: non-standard residue; d: D form. The star is where a group is joined. ξ: configuration not given here. DOTA = O=C(O)CN1CCN(CC(=O)O)CCN(CC(=O)*)CCN(CC(=O)O)CC1; Butanoyl(4-(4-MeO-phenyl)) = COc1ccc(CCCC(=O)*)cc1; ξAla(9-anthryl) = NC(Cc1c2ccccc2cc2ccccc12)C(=O)O; X2 = O=C(NC(CCCCN*)C(=O)O)NC(CC(F)C(=O)O)C(=O)O; X1 = O=C(C1CCC(CN[*:1])CC1)[*:2]; ξK = NCCCCC(N)C(=O)O
This listing pairs compounds with measured Biodistribution: Blood.
Value expressed in % ID/g; do not type the unit.

[in] Find Biodistribution: Blood (NRG-mice bearing LNCaP tumors) for the entry COc1ccc(CCCC(=O)NCC(=O)NC(CCCCNC(=O)CN2CCN(CC(=O)[O-])CCN(CC(=O)[O-])CCN(CC(=O)[O-])CC2)CC(=O)NCC2CCC(C(=O)NC(Cc3c4ccccc4cc4ccccc34)C(=O)NCCCCC(NC(=O)NC(CC(F)C(=O)O)C(=O)O)C(=O)O)CC2)cc1.[177Lu+3] (centres unmarked) [^177Lu-CCZ02019]
[out] 0.70

[in] And the next one, COc1ccc(CCCC(=O)NCC(=O)NC(CCCCNC(=O)CN2CCN(CC(=O)[O-])CCN(CC(=O)[O-])CCN(CC(=O)[O-])CC2)C(=O)NCC(=O)NCC2CCC(C(=O)NC(Cc3c4ccccc4cc4ccccc34)C(=O)NCCCCC(NC(=O)NC(CC(F)C(=O)O)C(=O)O)C(=O)O)CC2)cc1.[177Lu+3] (centres unmarked) [^177Lu-CCZ02008] ({Butanoyl(4-(4-MeO-phenyl))}-G[ξK](DOTA)G[X1][ξAla(9-anthryl)]-X2) ?
[out] 4.37

* * *

Test system: NRG-mice bearing LNCaP tumors
Experiment: Biodistribution (and PET/SPECT imaging) in NRG-mice bearing LNCaP tumors
Format: in vivo
Details: 24 h p.i., Avg
*1 amine or outer side, *2 acyl side, *3 side chain or, on linkers, in order; H or OH if unused. Where a SMILES comes first, the peptide text is derived from it. [ ]: non-standard residue; d: D form. The star is where a group is joined. ξ: configuration not given here. ξLys(Nα-CO-ξAad) = O=C(O)CCCC(NC(=O)NC(CCCCN*)C(=O)O)C(=O)O; Butanoyl(4-(4-NO2Ph)) = O=C(CCCc1ccc([N+](=O)[O-])cc1)*; DOTA = O=C(O)CN1CCN(CC(=O)O)CCN(CC(=O)*)CCN(CC(=O)O)CC1; Butanoyl(4-(4-MeO-phenyl)) = COc1ccc(CCCC(=O)*)cc1; ξAla(9-anthryl) = NC(Cc1c2ccccc2cc2ccccc12)C(=O)O; X2 = O=C(NC(CCCCN*)C(=O)O)NC(CC(F)C(=O)O)C(=O)O; X1 = O=C(C1CCC(CN[*:1])CC1)[*:2]; ξK = NCCCCC(N)C(=O)O
This listing pairs compounds with measured Biodistribution: Urine.
Value expressed in % ID/g; do not type the unit.

Study these solved cases before continuing.
O=C([O-])CN1CCN(CC(=O)[O-])CCN(CC(=O)NCCCCC(NC(=O)CNC(=O)CCCc2ccc([N+](=O)[O-])cc2)C(=O)NCC(=O)NCC2CCC(C(=O)NC(Cc3c4ccccc4cc4ccccc34)C(=O)NCCCCC(NC(=O)NC(CCCC(=O)O)C(=O)O)C(=O)O)CC2)CCN(CC(=O)[O-])CC1.[225Ac+3] (stereo not drawn) [^225Ac-CCZ02017] ({Butanoyl(4-(4-NO2Ph))}-G[ξK](DOTA)G[X1][ξAla(9-anthryl)]-{ξLys(Nα-CO-ξAad)}): 4.30
COc1ccc(CCCC(=O)NCC(=O)NC(CCCCNC(=O)CN2CCN(CC(=O)[O-])CCN(CC(=O)[O-])CCN(CC(=O)[O-])CC2)CC(=O)NCC2CCC(C(=O)NC(Cc3c4ccccc4cc4ccccc34)C(=O)NCCCCC(NC(=O)NC(CC(F)C(=O)O)C(=O)O)C(=O)O)CC2)cc1.[177Lu+3] (stereo not drawn) [^177Lu-CCZ02019]: 8.42

Proceeding to the next compound to report its Biodistribution: Urine.
[in] Which measured Biodistribution: Urine value corresponds to COc1ccc(CCCC(=O)NCC(=O)NC(CCCCNC(=O)CN2CCN(CC(=O)[O-])CCN(CC(=O)[O-])CCN(CC(=O)[O-])CC2)C(=O)NCC(=O)NCC2CCC(C(=O)NC(Cc3c4ccccc4cc4ccccc34)C(=O)NCCCCC(NC(=O)NC(CC(F)C(=O)O)C(=O)O)C(=O)O)CC2)cc1.[177Lu+3] (stereo not drawn) [^177Lu-CCZ02008] ({Butanoyl(4-(4-MeO-phenyl))}-G[ξK](DOTA)G[X1][ξAla(9-anthryl)]-X2) ?
[out] 28.57
